Value source: ChEMBL document CHEMBL1201862

System: SF-295
assay-text: NCI tumour cell line growth inhibition, 48 h
Active and inactive are the calls of the source. Rule as the data show it: active = GI50 up to about 1.1 µM and inactive = higher.
Your answer must be one of the following: active, inactive

CCCCCCCCCC1CC(=O)NCC(=O)NC(C(C)C)C(=O)NC(CC(C)C)C(=O)NC(C)C(=O)NC(C(C)C)C(=O)O1 (centres undefined) :: inactive
CCc1ccccc1NC(=O)/C=C/c1ccccc1 :: inactive
COC(=O)C1=C(C)NC(CF)=C(C(=O)OC)C1c1cccc2c(=O)c3ccccc3oc12 (centres undefined) :: inactive
[N-]=[N+]=NC1=C(c2ccccn2)C(=O)c2cccc3cccc1c23 :: inactive
Cc1ccc(S(=O)(=O)NC(=O)NC(CCCCN)C(=O)O)cc1 (centres undefined) :: inactive

Q: // return assay outcome for "N#C/C(N)=C(C#N)/N=C/N"
Result: inactive

Q: Just curious, what result did O=C(CN1CCOCC1)Nc1ccc2c(c1)C1Oc3ccccc3CC1CO2 (centres undefined) get here?
Result: inactive

Q: Per the records of this test, what outcome belongs to "O=[N+]([O-])c1cc2ccc(N(CCO)CCO)nc2nc1N(CCO)CCO" ?
Result: inactive

Q: Could you please tell me the result logged for O=[N+]([O-])c1ccc(C2SCc3nc4ccccc4n32)cc1 (centres undefined) in this assay?
Result: inactive

Q: Given COc1ccc(C(=O)C(C(=O)CCC(=O)Nc2cccc(C(F)(F)F)c2)c2ccccc2)cc1 (centres undefined) , state the outcome it received in this test.
Result: inactive

Q: Identify the outcome logged in this assay for the compound shown: "COc1ccc(Cc2c(N)[nH]c(=O)n(C)c2=O)cc1"
Result: inactive

====

Test system: RXF 393
assay-text: NCI tumour cell line growth inhibition, 48 h
Calls of active or inactive are those of the source. No stated cut-off is given here; in the data, active = GI50 up to about 1.1 µM and inactive = higher.
Respond only with the outcome that fits, drawn from active, inactive

S=C1CC(c2ccccc2)Sc2ccccc2N1 (stereo unspecified) :: inactive
Cc1cc2c(cc1C)[n+]([O-])c(C(=O)CC(=O)C(=O)Nc1ccccc1C)c(C)[n+]2[O-] :: inactive
CC(=O)NC1C(OCc2ccccc2)OC(CO)C(O)C1OC(C)C(=O)NC(C(=O)NC(CCC(=O)Nc1ccc2c(c1)CN1C(=O)c3ccccc3C1=N2)C(N)=O)C(C)C (stereo unspecified) :: inactive
C=CC1C2=C(C(=O)NCC2)C2OC(O)C3=C(CCNC3=O)C2C1C (stereo unspecified) :: inactive
COC1=C(OC)C(=O)c2cc(C)c(=O)c(C)cc2C1=O :: inactive

Now let's try a different one.
Q: Would you mind telling me which call this test gave "O[C@@H]1C[C@H]2N3CC[C@@]2(c2cc4c(cc2C3)OCO4)[C@H]2O[C@@H]12" ?
Result: inactive

====

In this section we review reported GI50 values for a set of compounds.
Tested on: SN12C
assay-text: NCI tumour cell line growth inhibition, 48 h
The source made the active and inactive calls. No stated cut-off is given here; in the data, active = GI50 up to about 1.1 µM and inactive = higher.

CCOC(=O)NC(NCC(O)c1ccccc1)(C(F)(F)F)C(F)(F)F (stereo unspecified) :: > 100 µM (inactive)

Q: Field request: GI50 | item: O1C2C1C1OC1C1OC1C1OC21 (stereo unspecified)
Result: > 100 µM (inactive)

Q: Given the entry "Cc1c(F)c(N)c2c(=O)cc(-c3ccc(NC(=O)[C@@H](N)CCCCN)c(F)c3)oc2c1F" , report its measured GI50.
Result: 14.9 µM (inactive)

Q: Consider the compound O=C1CC(n2cccc2)c2c(Br)sc(Br)c21 (stereo unspecified) and give its measured GI50.
Result: 17.3 µM (inactive)

Q: Value lookup for GI50; key = "Cc1cc(C)nc(NS(=O)(=O)c2ccc(NC(=O)c3ccc4nc5ccccc5c(Nc5ccc(S(=O)(=O)N=C(N)N)cc5)c4c3)cc2)n1"
Result: > 100 µM (inactive)

Q: Please look up its GI50: "O=C1C=C(Nc2nc(O)cc(C(=O)O)n2)c2ccccc2C1=O"
Result: > 100 µM (inactive)

Q: What value of measured GI50 is listed for "Cc1c2ccccc2c(=O)n2c(-c3ccccn3)cccc12" ?
Result: > 100 µM (inactive)

Q: Field request: GI50 | item: Cc1c(O)c(=O)ccn1C1OC(CO)C(O)C1O (stereo unspecified)
Result: > 100 µM (inactive)

Q: Find the recorded GI50 belonging to "N#C/C(N)=C(C#N)/N=C/N" and report it.
Result: > 100 µM (inactive)

Q: # GI50 lookup, item "NCCCCNCCCNC(=O)c1csc(-c2nc(CCN)sc2Cl)n1"
Result: > 100 µM (inactive)

Q: Could you tell me which GI50 is on file for O=[N+]([O-])c1ccc(C2SCc3nc4ccccc4n32)cc1 (stereo unspecified) ?
Result: 56.1 µM (inactive)
